Listing of entries alongside the reported LD50.
- run description: Acute toxicity in mice
- Assay type: in vivo
- conditions used: mouse, in vivo, oral, single dose, read-out: LD50, p.o.
Where a name gives a salt, the structure may show the parent alone.
value kind: LD50 (mg/kg)

>>> val("CCN(CC)C1=NCC(c2cc3ccccc3o2)C1 (stereo not shown)")
180
>>> val("c1ccc(NC2=NCC(c3cc4ccccc4o3)C2)cc1 (stereo not shown) [Example 6, hydrochloride]")
110
>>> val("NC1=NCC(c2cc3ccccc3o2)C1 (stereo not shown) [Example 1, hydrochloride]")
115
>>> val("CC(C)NC1=NCC(c2cc3ccccc3o2)C1 (stereo not shown) [Example 3, hydrochloride]")
200
>>> val("CN(C)C1=NCC(c2cc3ccccc3o2)C1 (stereo not shown) [Example 4, hydrochloride]")
240
>>> val("c1ccc2oc(C3CN=C(N4CCCC4)C3)cc2c1 (stereo not shown) [Example 8, hydrochloride]")
200
